Source: patent US8410150B2

# Test system: PC-3
# run_description: Cell growth inhibition, SRB assay
# Format: cell-based, human
# particulars: Homo sapiens; Prostate PC-3, 3% FBS; read-out: GI50
Parameter GI50: see the listing below.
Note: unit µM is implicit; provide only the numeric part.

Solved entries:
molecule: CCCCCCCCCCOc1ccc(C(=O)N[C@H](CC(=O)O)C[N+](C)(C)C)cc1 [Example S63, 2,2,2-trifluoroacetate]
measured_metric: GI50
result: 0.3
//
molecule: CCCCCCCCCCc1ccc(C(=O)N[C@H](CC(=O)[O-])C[N+](C)(C)C)cc1
measured_metric: GI50
result: 0.3
//
molecule: CCCCCCCCCCCCc1ccc(NS(=O)(=O)N[C@H](CC(=O)O)C[N+](C)(C)C)cc1
measured_metric: GI50
result: 1.6

Which value of GI50 has been reported for `CCCCCCCCCCCCCCc1ccc(NS(=O)(=O)N[C@H](CC(=O)O)C[N+](C)(C)C)cc1` in the records?
1.3

Same thing, different molecule: `CCCCCCCCc1ccc(NC(=O)N[C@H](CC(=O)[O-])C[N+](C)(C)C)cc1`
0.7

Same thing, different molecule: `CCCCCCCOc1ccc(NC(=O)N[C@H](CC(=O)[O-])C[N+](C)(C)C)cc1`
5.3

Same thing, different molecule: CCCCCCCCCCc1ccc(S(=O)(=O)N[C@H](CC(=O)O)C[N+](C)(C)C)cc1 [Example S75, 2,2,2-trifluoroacetate]
1.5

Same thing, different molecule: `CCCCCCCCCCOc1cccc(C(=O)N[C@H](CC(=O)[O-])C[N+](C)(C)C)c1`
1.5

###

# test_system: human CPT1A (Homo sapiens, UniProt P50416)
# Construct: made in house; host or cells: Saccharomyces cerevisiae (pESC-trp) or cultured mammalian cells (pCDNA3.1); mitochondrial extract
# Sequence (P50416 whole entry): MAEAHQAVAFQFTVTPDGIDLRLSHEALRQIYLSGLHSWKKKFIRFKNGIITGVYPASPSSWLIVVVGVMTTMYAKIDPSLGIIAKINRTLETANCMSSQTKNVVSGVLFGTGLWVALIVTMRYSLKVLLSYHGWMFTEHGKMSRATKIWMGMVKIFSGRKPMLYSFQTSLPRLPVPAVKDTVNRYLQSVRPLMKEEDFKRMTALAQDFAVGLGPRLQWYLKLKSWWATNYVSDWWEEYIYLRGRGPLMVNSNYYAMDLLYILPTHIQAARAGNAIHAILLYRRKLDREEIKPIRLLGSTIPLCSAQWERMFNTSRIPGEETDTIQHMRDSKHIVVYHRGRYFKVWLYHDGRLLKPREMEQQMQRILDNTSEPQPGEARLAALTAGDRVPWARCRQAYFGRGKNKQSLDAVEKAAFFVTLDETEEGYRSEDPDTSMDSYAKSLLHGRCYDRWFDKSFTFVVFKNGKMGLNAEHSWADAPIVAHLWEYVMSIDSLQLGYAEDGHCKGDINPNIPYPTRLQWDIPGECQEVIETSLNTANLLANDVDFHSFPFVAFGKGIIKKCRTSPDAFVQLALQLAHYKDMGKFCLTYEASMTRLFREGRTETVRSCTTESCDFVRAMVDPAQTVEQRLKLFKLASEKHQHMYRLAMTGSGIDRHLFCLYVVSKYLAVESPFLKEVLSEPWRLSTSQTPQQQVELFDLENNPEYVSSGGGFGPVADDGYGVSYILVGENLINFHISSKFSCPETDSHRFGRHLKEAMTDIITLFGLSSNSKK
# run_description: Human CPT1A LC/MS assay
# Format: biochemical
# particulars: human CPT1A LC/MS assay, dose response format
Where a name gives a salt, the structure may show the parent alone.
measured_metric: IC50

Solved entries:
compound: C[N+](C)(C)C[C@@H](CC(=O)[O-])NC(=O)Nc1cccc(Cc2ccccc2)c1 [Example S86]
result: 100 to 1000 µM

compound: C[N+](C)(C)C[C@@H](CC(=O)[O-])NC(=O)Nc1ccc(C(F)(F)F)cc1Cl [Example S6]
result: 100 to 1000 µM

compound: C[N+](C)(C)C[C@@H](CC(=O)O)NS(=O)(=O)c1ccc(-c2ccno2)s1 [Example S22, 2,2,2-trifluoroacetate]
result: 1000 to 2500 µM

compound: C[N+](C)(C)C[C@@H](CC(=O)O)NC(=O)c1ccc(Br)s1 [Example S95, trifluoroacetate]
result: 10 to 100 µM

Which value of IC50 has been reported for Cc1ccoc1C(=O)Nc1ccc(C(=O)N[C@H](CC(=O)[O-])C[N+](C)(C)C)cc1 [Example S5] in the records?
100 to 1000 µM

Same thing, different compound: C[N+](C)(C)C[C@@H](CC(=O)O)NS(=O)(=O)c1ccc(Oc2ccccc2)nc1 [Example S19, 2,2,2-trifluoroacetate]
100 to 1000 µM

Same thing, different compound: C[N+](C)(C)C[C@@H](CC(=O)O)NC(=O)Nc1ccc(C(=O)c2ccccc2)cc1 [Example S16, acetate]
10 to 100 µM
